Ref: paper PMC5513444

- Test system: HepG2 cells
- TEST_DESCRIPTION: Cytotoxicity against HepG2 cell line (CellTiter-Glo)
- Format: cell-based
- CONDITION_SET: Homo sapiens, 48 h; HepG2, 2 days incubation; read-out: IC50 (concentration required to reduce the viability of HepG2 cells by 50%)
pIC50: −log10 of the molar value.

- COMPOUND: "CNc1cc(-c2ccccc2)nc2ncnn12 [Compound 29]"
  pIC50: "< 4.70"
- COMPOUND: "Nc1cc(-c2ccccc2)nc2ncnn12 [Compound 28]"
  pIC50: "< 4.70"
- COMPOUND: "c1ccc(-c2ccn3ncnc3n2)cc1 [Compound 27]"
  pIC50: "< 4.70"
- COMPOUND: "COc1ccc(Nc2cc(-c3ccccc3)nc3ncnn23)cc1 [Compound 37]"
  pIC50: 4.31
